Source listed as patent US12612412B2.

system: HMPV clinical isolate TN/1501/A1; assay: HMPV antiviral assay Method-B (clinical isolate TN/1501/A1 in LLC-MK2 cells, ATP-Lite readout); format: cell-based, Human metapneumovirus (HMPV); conditions: human metapneumovirus, LLC-MK2, 144 h, hMPV WT1501 (clinical isolate TN/1501/A1), 6 days
# key: entry, value: EC50

Indicate its recorded EC50; the compound in question is COc1cc(C(=O)NC[C@](O)(c2nc(-c3ccc4c(c3)OC(F)(F)O4)c3c(c2F)[C@@](C)(C(N)=O)CO3)C2CC2)cc2cc(Cl)c(C)nc12
< 500 nM

###

system: HMPV clinical isolate TN/1501/A1; assay: HMPV antiviral assay Method-B (clinical isolate TN/1501/A1 in LLC-MK2 cells, ATP-Lite readout); assay type: cell-based, Human metapneumovirus (HMPV); conditions: human metapneumovirus, LLC-MK2, 144 h, hMPV WT1501 (clinical isolate TN/1501/A1), 6 days
pEC50: −log10 of the molar value.
MEASUREMENT_KIND: pEC50

# COMPOUND, REPORTED_VALUE
records = [
    ("COc1cc(C(=O)NC[C@](O)(c2cc3c(c(-c4ccc(F)c(Cl)c4)n2)OC[C@]3(C(N)=O)C(F)F)C(F)(F)F)cc2cc(Cl)c(C)nc12 [Example 1004]", "< 6.30"),
    ("COc1cc(C(=O)NC[C@](O)(c2cc3c(c(-c4ccc(F)c(Cl)c4)n2)OC[C@]3(CF)C(N)=O)C(F)(F)F)ccc1OC1CC1 [Example 1049]", "> 6.30"),
]

Next, consider the following compound.
Indicate its recorded pEC50; the compound in question is COc1cc(C(=O)NC[C@](O)(c2cc3c(c(-c4cc(F)c(F)cc4F)n2)OC[C@]3(C)C(N)=O)C2CC2)cc2cc(Br)cnc12 [Example 1149]
> 6.30

###

Test system: HMPV clinical isolate TN/1501/A1
Test: HMPV antiviral assay Method-B (clinical isolate TN/1501/A1 in LLC-MK2 cells, ATP-Lite readout)
Type: cell-based, Human metapneumovirus (HMPV)
Conditions: human metapneumovirus, LLC-MK2, 144 h, hMPV WT1501 (clinical isolate TN/1501/A1), 6 days
Experimental: In vitro HMPV antiviral activity was evaluated using the clinical isolate TN/1501/A1 and LLC-MK2 cells (ATCC #CCL-7), an immortalized kidney epithelial cell line from Macaca mulatta. […] The test compounds were assessed in duplicate at a top concentration of 10 μM followed by 3-fold serial dilutions to give a total of 10 concentration points. […] Cells were counted and seeded at a density of 5,000 cells/well, 12.5 μL/well. […]
pEC50: −log10 of the molar value.
# key: entry, value: pEC50

Print HMPV clinical isolate TN/1501/A1 pEC50 for COc1cc(C(=O)NC[C@](O)(c2cc3c(c(-c4ccc5c(c4)OC(F)(F)O5)n2)OC[C@]3(C)C(N)=O)C2(F)CC2)cc2cc(Cl)c(C)nc12 .
> 6.30

Print HMPV clinical isolate TN/1501/A1 pEC50 for COc1cc(C(=O)NC[C@](O)(c2cc3c(c(-c4ccc(F)c(C(F)(F)F)c4)n2)OC[C@]3(C)C(N)=O)C2CC2)cc2cn(C3(Cl)CC3)nc12 .
> 6.30

Print HMPV clinical isolate TN/1501/A1 pEC50 for COc1cc(C(=O)NCC(O)(c2cc3c(c(-c4cc(F)c(F)c(F)c4)n2)OC[C@]3(C)C(N)=O)C(F)(F)F)cc2cn(C3CC3)nc12 (stereo partly drawn) .
> 6.30

Print HMPV clinical isolate TN/1501/A1 pEC50 for COc1cc(C(=O)NC[C@](O)(c2nc(-c3ccc(F)c(Cl)c3F)c3c(c2F)[C@@](C)(C(N)=O)CO3)C2CC2)cc2cn(C3CC3)nc12 .
> 6.30

Print HMPV clinical isolate TN/1501/A1 pEC50 for COc1cc(C(=O)NC[C@](O)(c2cc3c(c(-c4cc(Cl)c(F)c(Cl)c4)n2)OC[C@]3(C)C(N)=O)C(F)(F)F)cc2cn(C3(F)CC3)nc12 .
< 6.30

Print HMPV clinical isolate TN/1501/A1 pEC50 for COc1cc(C(=O)NC[C@](O)(c2cc3c(c(-c4cccc(F)c4)n2)OC[C@]3(C)C(N)=O)C(F)(F)F)cc2cn(C3CC3)nc12 .
> 6.30
